- PROTOCOL TEXT: in vitro
- Assay type: cell-based
- CONDITION DESCRIPTION: human, Hemolytic Activity (percentage hemolysis)
Non-standard residues stand in square brackets, D forms with d. Residues, ends and D or L forms follow the SMILES beside them. Gly(NCH2CH2Ph) = O=C(O)CNCCc1ccccc1; Gly(N-2-aminoethyl) = NCCNCC(=O)O; hPhe = N[C@@H](CCc1ccccc1)C(=O)O; Gly(N(CH2)3NH2) = NCCCNCC(=O)O; Orn = NCCC[C@H](N)C(=O)O
REPORTED PROPERTY: hemolysis at 60 min, 800 µg/mL (%)
Express your answer in %, writing the number without its unit.

Consider the compound NCCCC[C@H](NC(=O)CN(CCc1ccccc1)C(=O)[C@H](CCCCN)NC(=O)CN(CCc1ccccc1)C(=O)[C@H](CCCCN)NC(=O)CN(CCc1ccccc1)C(=O)[C@H](CCCCN)NC(=O)CN(CCc1ccccc1)C(=O)[C@H](CCCCN)NC(=O)CN(CCc1ccccc1)C(=O)[C@@H](N)CCCCN)C(=O)N(CCc1ccccc1)CC(N)=O [Peptidomimetic 15] (H-K[Gly(NCH2CH2Ph)]K[Gly(NCH2CH2Ph)]K[Gly(NCH2CH2Ph)]K[Gly(NCH2CH2Ph)]K[Gly(NCH2CH2Ph)]K[Gly(NCH2CH2Ph)]-NH2) and give its recorded hemolysis at 60 min, 800 µg/mL.
8

Dear colleague, please send me the reported hemolysis at 60 min, 800 µg/mL for NCCNCC(=O)N[C@@H](Cc1ccccc1)C(=O)N(CCN)CC(=O)N[C@@H](Cc1ccccc1)C(=O)N(CCN)CC(=O)N[C@@H](Cc1ccccc1)C(=O)N(CCN)CC(=O)N[C@@H](Cc1ccccc1)C(=O)N(CCN)CC(=O)N[C@@H](Cc1ccccc1)C(=O)N(CCN)CC(=O)N[C@@H](Cc1ccccc1)C(N)=O [Peptidomimetic 1] (H-[Gly(N-2-aminoethyl)]F[Gly(N-2-aminoethyl)]F[Gly(N-2-aminoethyl)]F[Gly(N-2-aminoethyl)]F[Gly(N-2-aminoethyl)]F[Gly(N-2-aminoethyl)]F-NH2) when you can.
7

Provide only the value of recorded hemolysis at 60 min, 800 µg/mL for NCCCNCC(=O)N[C@@H](CCc1ccccc1)C(=O)N(CCCN)CC(=O)N[C@@H](CCc1ccccc1)C(=O)N(CCCN)CC(=O)N[C@@H](CCc1ccccc1)C(=O)N(CCCN)CC(=O)N[C@@H](CCc1ccccc1)C(=O)N(CCCN)CC(=O)N[C@@H](CCc1ccccc1)C(=O)N(CCCN)CC(=O)N[C@@H](CCc1ccccc1)C(N)=O [Peptidomimetic 6] (H-[Gly(N(CH2)3NH2)][hPhe][Gly(N(CH2)3NH2)][hPhe][Gly(N(CH2)3NH2)][hPhe][Gly(N(CH2)3NH2)][hPhe][Gly(N(CH2)3NH2)][hPhe][Gly(N(CH2)3NH2)][hPhe]-NH2)
8

Specify hemolysis at 60 min, 800 µg/mL for NCCC[C@H](NC(=O)CN(CCc1ccccc1)C(=O)[C@H](CCCN)NC(=O)CN(CCc1ccccc1)C(=O)[C@H](CCCN)NC(=O)CN(CCc1ccccc1)C(=O)[C@H](CCCN)NC(=O)CN(CCc1ccccc1)C(=O)[C@H](CCCN)NC(=O)CN(CCc1ccccc1)C(=O)[C@@H](N)CCCN)C(=O)N(CCc1ccccc1)CC(N)=O [Peptidomimetic 14] (H-[Orn][Gly(NCH2CH2Ph)][Orn][Gly(NCH2CH2Ph)][Orn][Gly(NCH2CH2Ph)][Orn][Gly(NCH2CH2Ph)][Orn][Gly(NCH2CH2Ph)][Orn][Gly(NCH2CH2Ph)]-NH2) and stop.
11

----------
Consider the following molecules; for each one, report its hemolysis at 60 min, 800 µg/mL.
- PROTOCOL TEXT: in vitro
- Assay type: cell-based
- CONDITION DESCRIPTION: human, Hemolytic Activity (percentage hemolysis)
Non-standard residues stand in square brackets, D forms with d. Residues, ends and D or L forms follow the SMILES beside them. Gly(NCH2CH2Ph) = O=C(O)CNCCc1ccccc1; hPhe = N[C@@H](CCc1ccccc1)C(=O)O; Gly(N(CH2)3NH2) = NCCCNCC(=O)O; hLys = NCCCCC[C@H](N)C(=O)O; Nphe = O=C(O)CNCc1ccccc1; Dab = NCC[C@H](N)C(=O)O; Nlys = NCCCCNCC(=O)O
Numeric answer only, unit % assumed.

Report hemolysis at 60 min, 800 µg/mL, nothing else, for this molecule: NCCCCC[C@H](NC(=O)CN(Cc1ccccc1)C(=O)[C@H](CCCCCN)NC(=O)CN(Cc1ccccc1)C(=O)[C@H](CCCCCN)NC(=O)CN(Cc1ccccc1)C(=O)[C@H](CCCCCN)NC(=O)CN(Cc1ccccc1)C(=O)[C@H](CCCCCN)NC(=O)CN(Cc1ccccc1)C(=O)[C@@H](N)CCCCCN)C(=O)N(CC(N)=O)Cc1ccccc1 [Peptidomimetic 12] (H-[hLys][Nphe][hLys][Nphe][hLys][Nphe][hLys][Nphe][hLys][Nphe][hLys][Nphe]-NH2)
9

Report hemolysis at 60 min, 800 µg/mL, nothing else, for this molecule: NCC[C@H](NC(=O)CN(CCc1ccccc1)C(=O)[C@H](CCN)NC(=O)CN(CCc1ccccc1)C(=O)[C@H](CCN)NC(=O)CN(CCc1ccccc1)C(=O)[C@H](CCN)NC(=O)CN(CCc1ccccc1)C(=O)[C@H](CCN)NC(=O)CN(CCc1ccccc1)C(=O)[C@@H](N)CCN)C(=O)N(CCc1ccccc1)CC(N)=O [Peptidomimetic 13] (H-[Dab][Gly(NCH2CH2Ph)][Dab][Gly(NCH2CH2Ph)][Dab][Gly(NCH2CH2Ph)][Dab][Gly(NCH2CH2Ph)][Dab][Gly(NCH2CH2Ph)][Dab][Gly(NCH2CH2Ph)]-NH2)
53

Name the recorded hemolysis at 60 min, 800 µg/mL of the molecule listed here: NCCCCNCC(=O)N[C@@H](CCc1ccccc1)C(=O)N(CCCCN)CC(=O)N[C@@H](CCc1ccccc1)C(=O)N(CCCCN)CC(=O)N[C@@H](CCc1ccccc1)C(=O)N(CCCCN)CC(=O)N[C@@H](CCc1ccccc1)C(=O)N(CCCCN)CC(=O)N[C@@H](CCc1ccccc1)C(=O)N(CCCCN)CC(=O)N[C@@H](CCc1ccccc1)C(N)=O [Peptidomimetic 7] (H-[Nlys][hPhe][Nlys][hPhe][Nlys][hPhe][Nlys][hPhe][Nlys][hPhe][Nlys][hPhe]-NH2)
6

Check the records and state hemolysis at 60 min, 800 µg/mL for NCC[C@H](NC(=O)CN(Cc1ccccc1)C(=O)[C@H](CCN)NC(=O)CN(Cc1ccccc1)C(=O)[C@H](CCN)NC(=O)CN(Cc1ccccc1)C(=O)[C@H](CCN)NC(=O)CN(Cc1ccccc1)C(=O)[C@H](CCN)NC(=O)CN(Cc1ccccc1)C(=O)[C@@H](N)CCN)C(=O)N(CC(N)=O)Cc1ccccc1 [Peptidomimetic 9] (H-[Dab][Nphe][Dab][Nphe][Dab][Nphe][Dab][Nphe][Dab][Nphe][Dab][Nphe]-NH2)
79

Please indicate hemolysis at 60 min, 800 µg/mL recorded for NCCCNCC(=O)N[C@@H](Cc1ccccc1)C(=O)N(CCCN)CC(=O)N[C@@H](Cc1ccccc1)C(=O)N(CCCN)CC(=O)N[C@@H](Cc1ccccc1)C(=O)N(CCCN)CC(=O)N[C@@H](Cc1ccccc1)C(=O)N(CCCN)CC(=O)N[C@@H](Cc1ccccc1)C(=O)N(CCCN)CC(=O)N[C@@H](Cc1ccccc1)C(N)=O [Peptidomimetic 2] (H-[Gly(N(CH2)3NH2)]F[Gly(N(CH2)3NH2)]F[Gly(N(CH2)3NH2)]F[Gly(N(CH2)3NH2)]F[Gly(N(CH2)3NH2)]F[Gly(N(CH2)3NH2)]F-NH2)
5

----------
Would you mind telling me the reported MIC of each entry?
- Test system: P. aeruginosa ATCC 27853
- Assay type: cell-based
- CONDITION DESCRIPTION: ATCC 27853, 20 h
Non-standard residues stand in square brackets, D forms with d. Residues, ends and D or L forms follow the SMILES beside them. N(5-aminopentyl)Gly = NCCCCCNCC(=O)O; Gly(N(CH2)3NH2) = NCCCNCC(=O)O; Nlys = NCCCCNCC(=O)O

Give the reported MIC for this molecule. NCCCNCC(=O)N[C@@H](Cc1ccccc1)C(=O)N(CCCN)CC(=O)N[C@@H](Cc1ccccc1)C(=O)N(CCCN)CC(=O)N[C@@H](Cc1ccccc1)C(=O)N(CCCN)CC(=O)N[C@@H](Cc1ccccc1)C(=O)N(CCCN)CC(=O)N[C@@H](Cc1ccccc1)C(=O)N(CCCN)CC(=O)N[C@@H](Cc1ccccc1)C(N)=O [Peptidomimetic 2] (H-[Gly(N(CH2)3NH2)]F[Gly(N(CH2)3NH2)]F[Gly(N(CH2)3NH2)]F[Gly(N(CH2)3NH2)]F[Gly(N(CH2)3NH2)]F[Gly(N(CH2)3NH2)]F-NH2)
>64 µg/mL

Please list MIC recorded for the molecule NCCCCNCC(=O)N[C@@H](Cc1ccccc1)C(=O)N(CCCCN)CC(=O)N[C@@H](Cc1ccccc1)C(=O)N(CCCCN)CC(=O)N[C@@H](Cc1ccccc1)C(=O)N(CCCCN)CC(=O)N[C@@H](Cc1ccccc1)C(=O)N(CCCCN)CC(=O)N[C@@H](Cc1ccccc1)C(=O)N(CCCCN)CC(=O)N[C@@H](Cc1ccccc1)C(N)=O [Peptidomimetic 3] (H-[Nlys]F[Nlys]F[Nlys]F[Nlys]F[Nlys]F[Nlys]F-NH2)
>64 µg/mL

Return MIC for the following molecule: NCCCCCNCC(=O)N[C@@H](Cc1ccccc1)C(=O)N(CCCCCN)CC(=O)N[C@@H](Cc1ccccc1)C(=O)N(CCCCCN)CC(=O)N[C@@H](Cc1ccccc1)C(=O)N(CCCCCN)CC(=O)N[C@@H](Cc1ccccc1)C(=O)N(CCCCCN)CC(=O)N[C@@H](Cc1ccccc1)C(=O)N(CCCCCN)CC(=O)N[C@@H](Cc1ccccc1)C(N)=O [Peptidomimetic 4] (H-[N(5-aminopentyl)Gly]F[N(5-aminopentyl)Gly]F[N(5-aminopentyl)Gly]F[N(5-aminopentyl)Gly]F[N(5-aminopentyl)Gly]F[N(5-aminopentyl)Gly]F-NH2)
>64 µg/mL
